Tested on: HeLa NF-κB-luc cells
Assay: NF-κB-luc reporter assay, TNF-α stimulated
Type: cell-based
Settings: Homo sapiens, 30 min pretreatment, TNF-α 25 ng/mL, 8 h, Steady-Glo luciferase, read-out: IC50, NF-κB mediated gene transcription
Procedure: NF-κB-luc reporter assay: HeLa NF-κB-luc cells (5.0×10^5 cells/mL) were seeded into a 96-well white opaque plate using DMEM medium supplemented with 5% fetal bovine serum, 500 U/mL penicillin, 100 μg/mL streptomycin, 1 mM sodium pyruvate, 0.2 mM L-glutamine, and 100 Ig/mL hygromycin B. After 24 h the cell culture medium was replaced with DMEM medium supplemented with 100 U/mL penicillin and 100 Ig/mL streptomycin. […] The luminescence of each well was measured using a Veritas microplate luminometer. […]
test readout: IC50 (µM)

INSERT INTO results (structure_smiles, assay_result) VALUES
  ('Cc1cc(C)c2cc(C3=CCCCC3)c(C)nc2c1', 12.1);

---

assay: Kinetic solubility assay; type: physicochemical; details: phosphate buffered saline with 1% DMSO, aqueous buffer, kinetic from dmso stock; estimated kinetic solubility, phosphate buffered saline pH 7.4, 1% DMSO, 2 hours at 37° C., absorbance 620 nm
test readout: solubility at 2 h (µM)

INSERT INTO results (structure_smiles, test_readout, units_symbol, assay_result) VALUES
  ('Cc1nc2ccc(C(C)C)cc2cc1C1=CCCCC1', 'solubility at 2 h', 'µM', 11.7),
  ('Cc1cc(C)c2cc(C3=CCCCC3)c(C)nc2c1', 'solubility at 2 h', 'µM', 38.1),
  ('CCCCc1ccc2nc(C)c(C3=CCCCC3)cc2c1', 'solubility at 2 h', 'µM', 14.5),
  ('CCc1nc2ccc(N(C)C)cc2cc1C1=CCCCC1', 'solubility at 2 h', 'µM', 27.4),
  ('Cc1cc(C)c2cc(C3CCCCC3)c(C)nc2c1', 'solubility at 2 h', 'µM', 129),
  ('Cc1nc2ccc(N(C)C)cc2cc1-c1ccccc1', 'solubility at 2 h', 'µM', 121),
  ('Cc1nc2ccc(N(C)C)cc2cc1C1CCCCC1', 'solubility at 2 h', 'µM', 138);

---

Let's go through some recorded pIC50 values for purified human 20S proteasome (CT-L activity) (Homo sapiens, UniProt P28074) together.
pIC50: −log10 of the molar value.
test readout: pIC50

INSERT INTO results (molecule, assay_result) VALUES
  ('CCc1nc2ccc(N(C)C)cc2cc1C1=CCCCC1 [Compound 23]', 5.25),
  ('Cc1nc2ccc(Br)cc2cc1C1=CCCCC1 [Compound 16, 6-Bromo-3-cyclohexenyl-2-methylquinoline]', 5.00),
  ('CCCCc1ccc2nc(C)c(C3=CCCCC3)cc2c1 [Compound 20, 6-Butyl-3-cyclohexenyl-2-methylquinoline]', 5.12),
  ('COc1cc2nc(C)c(C3=CCCCC3)cc2c(OC)c1OC [Compound 27]', 4.81),
  ('CN(C)c1ccc2ncc(C3=CCCCC3)cc2c1 [Compound 21]', 5.20),
  ('Cc1nc2ccc(N(C)C)cc2cc1C1=CCCCC1 [Compound 22]', 5.21),
  ('Cc1cc(C)c2cc(C3CCCCC3)c(C)nc2c1 [Compound 11]', 5.09),
  ('Cc1ccc2nc(C)c(C3=CCCCC3)cc2c1 [Compound 19, 3-Cyclohexenyl-2,6-dimethylquinoline]', 5.07),
  ('Cc1cc(C)c2cc(-c3ccccc3)c(C)nc2c1 [Compound 6, 2,5,7-trimethyl-3-phenylquinoline]', 4.82);
